Data provenance: patent US20190367619A1

Biological target: T1, cynomolgus galectin-10-His, WGS isoform (cynomolgus)
T1 construct: also called cynoGal10-WGS; not shown: His tag
T1 chain: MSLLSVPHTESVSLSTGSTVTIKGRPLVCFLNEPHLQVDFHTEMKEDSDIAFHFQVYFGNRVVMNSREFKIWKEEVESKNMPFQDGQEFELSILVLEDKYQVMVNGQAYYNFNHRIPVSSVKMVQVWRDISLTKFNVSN
Test: SPR Biacore (summary table)
observationType: Kd
State the value with its unit after it.

# binder, experimentalValue
data = [
    ("11F02 scFv-human Fc (Fc fusion, also called 011F02; not shown: CH2-CH3 constant domains of human IgG1 (pUPEX50 scFv-Fc fusion vector)) scFv: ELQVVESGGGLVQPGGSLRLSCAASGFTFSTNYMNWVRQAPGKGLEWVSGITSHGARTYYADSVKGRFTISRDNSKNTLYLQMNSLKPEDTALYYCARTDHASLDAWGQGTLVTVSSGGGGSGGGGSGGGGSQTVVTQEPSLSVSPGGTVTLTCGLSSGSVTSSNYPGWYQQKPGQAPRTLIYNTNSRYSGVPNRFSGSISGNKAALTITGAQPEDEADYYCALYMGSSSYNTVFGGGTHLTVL", "7.9 nM"),
    ("8H11 scFv-human Fc (Fc fusion, also called 008H11; not shown: CH2-CH3 constant domains of human IgG1 (pUPEX50 scFv-Fc fusion vector)) scFv: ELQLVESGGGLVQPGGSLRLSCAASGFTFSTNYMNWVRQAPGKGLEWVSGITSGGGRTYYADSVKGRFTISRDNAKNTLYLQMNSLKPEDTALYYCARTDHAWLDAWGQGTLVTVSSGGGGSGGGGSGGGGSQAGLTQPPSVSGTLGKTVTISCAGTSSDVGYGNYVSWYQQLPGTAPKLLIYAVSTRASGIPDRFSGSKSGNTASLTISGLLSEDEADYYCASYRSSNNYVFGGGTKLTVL", "0.9 nM"),
    ("7B07 scFv-human Fc (Fc fusion, also called 007B07; not shown: CH2-CH3 constant domains of human IgG1 (pUPEX50 scFv-Fc fusion vector)) scFv: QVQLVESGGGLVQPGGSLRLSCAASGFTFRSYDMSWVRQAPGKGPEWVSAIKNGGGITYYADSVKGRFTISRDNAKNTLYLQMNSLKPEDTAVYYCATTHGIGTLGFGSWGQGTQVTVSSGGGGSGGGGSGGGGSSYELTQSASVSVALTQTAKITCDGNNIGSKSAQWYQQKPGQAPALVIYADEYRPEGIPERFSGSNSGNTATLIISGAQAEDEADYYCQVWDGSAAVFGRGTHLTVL", "1.5 nM"),
]

Next binder, Kd to be filled in.
Which value of Kd has been reported for 10D02 scFv-human Fc (Fc fusion, also called 010D02; not shown: CH2-CH3 constant domains of human IgG1 (pUPEX50 scFv-Fc fusion vector)) scFv: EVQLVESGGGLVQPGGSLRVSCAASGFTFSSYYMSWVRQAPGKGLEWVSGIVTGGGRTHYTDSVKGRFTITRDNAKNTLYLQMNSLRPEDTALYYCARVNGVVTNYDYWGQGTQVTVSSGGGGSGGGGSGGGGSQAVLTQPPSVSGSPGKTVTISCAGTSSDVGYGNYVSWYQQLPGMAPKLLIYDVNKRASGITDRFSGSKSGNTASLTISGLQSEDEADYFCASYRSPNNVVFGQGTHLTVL in the records? 2.7 nM
